- Target: ArgT (Corynebacterium glutamicum, UniProt Q8NQU2)
- Construct: His10-ArgT, variant with cleavable His-tag and lacking the signal peptide
- Sequence (Q8NQU2 27-304): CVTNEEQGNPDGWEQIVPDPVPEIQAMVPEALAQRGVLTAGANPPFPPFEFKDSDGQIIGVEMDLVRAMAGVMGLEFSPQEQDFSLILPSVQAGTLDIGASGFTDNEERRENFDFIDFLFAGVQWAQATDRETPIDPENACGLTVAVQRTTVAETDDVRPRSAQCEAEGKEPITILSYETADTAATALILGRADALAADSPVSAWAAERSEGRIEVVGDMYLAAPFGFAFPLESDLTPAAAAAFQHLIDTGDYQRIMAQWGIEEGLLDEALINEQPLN
- Assay explanation: isothermal titration calorimetry, purified His10-ArgT
- Format: binding

{"columns": ["Compound", "Kd, nM"],
 "data": [
  ["N=C(N)NCCC[C@H](N)C(=O)O [L-arginine]", 29.5]
]}

----------
- Target: ArgT (Corynebacterium glutamicum)
- Construct: His10-ArgT, variant with cleavable His-tag and lacking the signal peptide
- Assay explanation: isothermal titration calorimetry, purified His10-ArgT (one measurement)
- Assay type: binding
pKd: −log10 of the molar value.

{"columns": ["Smi", "pKd"],
 "data": [
  ["NC(=O)NCCC[C@H](N)C(=O)O", 6.36]
]}

Provenance of the data: paper PMC10105947
